Each recorded value in this set is attributed to patent US20250177383A1.

Molecular target: IL-17A/A (Homo sapiens)
Sequence (Q16552 24-155): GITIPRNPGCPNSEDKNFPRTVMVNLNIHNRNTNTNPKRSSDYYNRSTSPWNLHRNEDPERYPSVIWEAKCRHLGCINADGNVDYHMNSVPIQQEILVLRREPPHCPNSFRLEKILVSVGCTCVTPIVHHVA
Experiment: IL-17A/A HEK-Blue Cell Assay
Format: cell-based
Conditions: HEK-Blue IL-17 reporter cells, IL-17A/A stimulation, 20 hours, SEAP readout; read-out: IL17 AA HEK-5 pIC50 (converted)
ENDPOINT_LABEL: IC50

Looking up "COCC(=O)N[C@@H](C(=O)N1CCN(C)CC1)[C@@H](C)c1ccc(NC(=O)[C@@H](NC(=O)c2nonc2C)C(C2CC2)C2CC2)c(F)c1" , I see its IC50 listed as 10 to 100 nM

Looking up CCn1nccc1C(=O)N[C@H](C(=O)Nc1ccc(C(C(NC(=O)[C@H](C)OC)C(=O)N2CCN(C)[C@H](C)C2)C(F)(F)F)cc1F)C(C1CC1)C1CC1 (single isomer, unassigned) [Compound 355] , I see its IC50 listed as 100 to 10000 nM

Looking up "CO[C@@H](C)C(=O)N[C@@H](C(=O)N1CCN(C)CC1)[C@@H](C)c1ccc(NC(=O)[C@@H](NC(=O)c2ccnn2C2CC2)C(C2CC2)C2CC2)c(F)c1" , I see its IC50 listed as < 10 nM

Looking up "CCc1nonc1C(=O)N[C@H](C(=O)Nc1ccc([C@H](C)[C@@H](NC(C)=O)C(=O)N2CCN(C)[C@H](C)C2)cc1F)C(C1CC1)C1CC1" , I see its IC50 listed as < 10 nM

Looking up CCC(OC)C(=O)N[C@@H](C(=O)N1CCN(C)CC1)[C@@H](C)c1ccc(NC(=O)[C@@H](NC(=O)c2ccnn2CC)C(C2CC2)C2CC2)c(F)c1 (single isomer, unassigned) [Compound 340] , I see its IC50 listed as < 10 nM

Looking up "CO[C@@H](C)C(=O)N[C@@H](C(=O)N1CCN(C)[C@H](C)C1)[C@@H](C)c1ccc(NC(=O)[C@@H](NC(=O)c2ccnn2C2CC2)C(C2CC2)C2CC2)c(F)c1" , I see its IC50 listed as < 10 nM

Looking up CCOC(C)C(=O)N[C@@H](C(=O)N1CCN(C)[C@H](C)C1)[C@@H](C)c1ccc(NC(=O)[C@@H](NC(=O)C2(F)CC2)C(C2CC2)C2CC2)c(F)c1 (single isomer, unassigned) [Compound 321] , I see its IC50 listed as 10 to 100 nM

Looking up "CO[C@@H](C)C(=O)N[C@@H](C(=O)N1CC[C@H](N(C)C)C1)[C@@H](C)c1ccc(NC(=O)[C@@H](NC(=O)c2ccnn2C(C)C)C(C2CC2)C2CC2)c(F)c1" , I see its IC50 listed as < 10 nM

Looking up "CCC(=O)N[C@@H](C(=O)N1C[C@H]2CC[C@@H](C1)N2C)[C@@H](C)c1ccc(NC(=O)[C@@H](NC(=O)c2ccnn2CC)C(C2CC2)C2CC2)c(F)c1" , I see its IC50 listed as < 10 nM

Looking up "CCn1nccc1C(=O)N[C@H](C(=O)Nc1ccc([C@H](C)[C@@H](NC(=O)[C@@H](C)F)C(=O)N2CCN(C)[C@H](C)C2)cc1F)C(C1CC1)C1CC1" , I see its IC50 listed as < 10 nM
